// data source = patent US20200024330A1

IC50 neutralization overview
target: HIV-1 APV17 envelope glycoprotein (Env) (HIV-1); assay: cell-based or functional assay

Check out these entries, answers already filled in.
| binder | IC50 neutralization |
| --- | --- |
| PGT-135 (antibody, V domains shown) VH: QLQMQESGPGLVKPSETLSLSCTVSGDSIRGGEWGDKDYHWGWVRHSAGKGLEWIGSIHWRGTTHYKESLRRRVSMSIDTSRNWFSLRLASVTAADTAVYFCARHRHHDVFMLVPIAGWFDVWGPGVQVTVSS VL: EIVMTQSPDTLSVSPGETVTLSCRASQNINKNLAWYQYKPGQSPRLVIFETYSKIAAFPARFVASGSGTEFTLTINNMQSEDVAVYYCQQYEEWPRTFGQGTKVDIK | > 10 µg/mL |
| PGT-136 (antibody, V domains shown) VH: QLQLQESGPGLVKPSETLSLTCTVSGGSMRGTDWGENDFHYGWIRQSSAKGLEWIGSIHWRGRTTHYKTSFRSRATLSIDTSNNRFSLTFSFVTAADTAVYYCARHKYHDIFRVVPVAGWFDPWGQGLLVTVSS VL: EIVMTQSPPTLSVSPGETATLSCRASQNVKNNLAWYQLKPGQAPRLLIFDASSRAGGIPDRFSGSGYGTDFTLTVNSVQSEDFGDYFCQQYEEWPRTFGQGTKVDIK | > 10 µg/mL |

Could you now consider this next binder?
Given PGT-130 (antibody, V domains shown) VH: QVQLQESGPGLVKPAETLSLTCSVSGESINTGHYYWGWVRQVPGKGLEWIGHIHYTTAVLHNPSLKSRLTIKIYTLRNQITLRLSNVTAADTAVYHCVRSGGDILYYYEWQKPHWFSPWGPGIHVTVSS VL: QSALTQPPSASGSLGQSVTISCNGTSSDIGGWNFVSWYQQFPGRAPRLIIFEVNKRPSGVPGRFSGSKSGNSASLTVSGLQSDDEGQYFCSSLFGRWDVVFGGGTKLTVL , state its recorded IC50 neutralization. > 10 µg/mL
